- Tested on: 496974-208-R-J2-PDC complex spheroids, growth % test/control;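 note: spheroids exposed to the drugs for 7 days before readout; 100% = DMSO vehicle control wells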
- PROCEDURE_TEXT: Anticancer human tumor 496974-208-R-J2-PDC patient-derived pancreatic carcinoma cell line growth inhibition [CLK]
- PARTICULARS: second compound 10 µM; first compound 0.01 µM; hits give low values
- Description: A high-throughput screen of multi-cell type tumor spheroids was designed to identify active combinations of […] and targeted small molecules. Complex spheroids include a stromal component modeled by human endothelial cells (HUVEC) and fibroblasts modeled by human mesenchymal stem cells (MSCs). […] Compounds. […] If the clinical Cmax for an agent had not been determined, the highest concentration tested was 10 microM. […]
PROPERTY_LABEL: viability, T/C (%)
Give a bare numeral; the unit % is implied.

Below, each entry is followed by its recorded viability, T/C result.
>  <COMPOUND>
Cn1ncnc1[C@H]1c2n[nH]c(=O)c3cc(F)cc(c23)N[C@@H]1c1ccc(F)cc1 + CNC(=O)c1ccc(Nc2nc(OC3CCCC3)c3c(-c4ccc5nc(C)oc5c4)c[nH]c3n2)c(OC)c1

>  <EXPERIMENTAL_VALUE>
54.1

$$$$
>  <COMPOUND>
CCN1CCN(Cc2ccc(Nc3ncc(F)c(-c4cc(F)c5nc(C)n(C(C)C)c5c4)n3)nc2)CC1 + CNC(=O)c1ccc(Nc2nc(OC3CCCC3)c3c(-c4ccc5nc(C)oc5c4)c[nH]c3n2)c(OC)c1

>  <EXPERIMENTAL_VALUE>
61.7

$$$$

Pending compound:
Qu. // viability, T/C lookup, key: CCc1c2c(nc3ccc(O)cc13)-c1cc3c(c(=O)n1C2)COC(=O)[C@]3(O)CC + CNC(=O)c1ccc(Nc2nc(OC3CCCC3)c3c(-c4ccc5nc(C)oc5c4)c[nH]c3n2)c(OC)c1
Ans. 38.9
